Recorded values, source patent US20120171209A1.

- target-under-test: cynomolgus IL-6R used in Biacore (cynomolgus monkey)
- assay-procedure: Biacore, periplasmic extract
Listed here are binders together with their documented koff.
Your answer should be a plain number; it is taken to be in s⁻¹.

[[record]]
binder = "IL6RPMP100D11 (VHH) VHH: EVQLVESGGGLVQAGDSLRLSCLASGRSFKDDAMGWFRQAPGKEREFVSGIDWRGNIVDAESVKGRFTISRENAKNTLYLQMNHLKPEDTAVYYCAASSVFSDLRYRKNPKYWGQGTQVTVSS"
reported_result = 0.00074


// next entry
stdin: Given the entry IL6RPMP105B8 (VHH, family 3; periplasmic extract) VHH: EVQLVESGGGLVRAGGSLRLSCAASGFAFDDYAIGWFRQAPGKEREGVSSISSSNGNTYYADSVRGRFTISSDNAKNTVYLQMNSLKPEDTGVYYCAAIWGIFFNEKMPVGAYDYWGQGTQVTVSS , report its measured koff.
stdout: 0.01
